Numbers sourced from patent US11214803B2.

Test system: Yap1 mRNA
Experiment: Antisense inhibition of human Yap1 in A-431 cells by cEt gapmers, single dose (Example 2, RTS4814)
Type: cell-based
Assay setup: Table 23; Yap1 mRNA as percent of untreated control; 3-10-3 cEt gapmers; single dose
Strand notation (5' to 3'): a small letter for the sugar, then the base; units joined by * are phosphorothioate-linked, units joined directly phosphodiester-linked; [ ] holds rarer units or linkages, { } end groups; capitals alone tell only the bases. k = constrained ethyl (cEt); [5mC] = 5-methylcytosine; d = 2'-deoxy (DNA)
Provide the recorded YAP1 (% UTC) for the entries that follow.
Answer format: numeric, % UTC implied, no suffix.

stdin: GET /values?readout=YAP1 (% UTC)&item= 1074761 (kT*kA*k[5mC]*d[5mC]*d[5mC]*dA*dA*dT*dA*d[5mC]*dA*dA*d[5mC]*k[5mC]*kA*kA; antisense) [Compound 1074761]
stdout: 15

stdin: GET /values?readout=YAP1 (% UTC)&item= 1075241 (antisense kG*kA*kT*dA*dA*dT*dT*dA*d[5mC]*dT*dA*dA*d[5mC]*kT*kG*kA) [Compound 1075241]
stdout: 31

stdin: GET /values?readout=YAP1 (% UTC)&item= 1075977 (kG*kA*kT*dT*dA*dA*dA*dA*dG*dT*d[5mC]*dG*dG*kG*k[5mC]*k[5mC]; antisense) [Compound 1075977]
stdout: 73

stdin: GET /values?readout=YAP1 (% UTC)&item= 1075081 (antisense kG*kA*kT*dT*dA*d[5mC]*dA*dA*dA*dG*dA*d[5mC]*dA*kG*k[5mC]*k[5mC]) [Compound 1075081]
stdout: 7

stdin: GET /values?readout=YAP1 (% UTC)&item= 1076201 (k[5mC]*kT*kA*dA*dA*dA*dA*dG*dA*d[5mC]*dA*dG*dG*kG*k[5mC]*k[5mC]; antisense) [Compound 1076201]
stdout: 99

stdin: GET /values?readout=YAP1 (% UTC)&item= 1076457 (antisense kG*kA*kA*d[5mC]*dT*dA*dT*dA*dA*dT*d[5mC]*dT*dT*kA*kT*kA) [Compound 1076457]
stdout: 74

stdin: GET /values?readout=YAP1 (% UTC)&item= 1075401 (antisense k[5mC]*kG*kA*dT*dT*dA*dA*dA*dA*d[5mC]*dA*d[5mC]*dT*kG*kG*kT) [Compound 1075401]
stdout: 3

stdin: GET /values?readout=YAP1 (% UTC)&item= 1074121 (antisense kT*kG*k[5mC]*dG*dA*dG*dG*d[5mC]*dA*d[5mC]*dT*d[5mC]*dG*kG*kA*k[5mC]) [Compound 1074121]
stdout: 87

stdin: GET /values?readout=YAP1 (% UTC)&item= 1076265 (kT*kA*kT*dT*dA*d[5mC]*d[5mC]*d[5mC]*dA*dA*dT*dA*dA*k[5mC]*k[5mC]*kA; antisense) [Compound 1076265]
stdout: 9

stdin: GET /values?readout=YAP1 (% UTC)&item= 1074985 (antisense kA*kA*kT*d[5mC]*dA*d[5mC]*d[5mC]*dT*dT*dT*dT*dA*dT*kT*kG*k[5mC]) [Compound 1074985]
stdout: 49

stdin: GET /values?readout=YAP1 (% UTC)&item= 1075657 (kT*kA*kA*dA*dA*dA*dA*d[5mC]*dG*dG*dT*dT*dT*kT*kT*k[5mC]; antisense) [Compound 1075657]
stdout: 84

stdin: GET /values?readout=YAP1 (% UTC)&item= 1074505 (kA*kA*kT*d[5mC]*dG*dA*dG*dA*dT*dT*dT*dA*dA*kA*kT*kA; antisense) [Compound 1074505]
stdout: 83

stdin: GET /values?readout=YAP1 (% UTC)&item= 1075849 (k[5mC]*kT*kA*dG*dA*dA*d[5mC]*dA*d[5mC]*dG*d[5mC]*dT*dG*kA*kT*kG; antisense) [Compound 1075849]
stdout: 55

stdin: GET /values?readout=YAP1 (% UTC)&item= 1074153 (antisense k[5mC]*kA*k[5mC]*dG*dG*dG*d[5mC]*d[5mC]*dG*dA*dG*dG*dT*kG*kG*kA) [Compound 1074153]
stdout: 78

stdin: GET /values?readout=YAP1 (% UTC)&item= 1075593 (k[5mC]*kA*kT*dT*dA*dG*dA*dG*dT*dA*dT*dG*dA*kA*k[5mC]*kT; antisense) [Compound 1075593]
stdout: 99

stdin: GET /values?readout=YAP1 (% UTC)&item= 958499 (kA*kT*kT*dA*dG*dA*dG*dT*dA*dT*dG*dT*dG*kG*k[5mC]*kA) [Compound 958499]
stdout: 2

stdin: GET /values?readout=YAP1 (% UTC)&item= 1074185 (antisense kG*kG*k[5mC]*d[5mC]*dG*dG*dT*dT*dG*dA*dG*dG*d[5mC]*kG*kG*k[5mC]) [Compound 1074185]
stdout: 91

====

System: Yap1 mRNA
Experiment: Antisense inhibition of human Yap1 in A-431 cells by cEt gapmers, single dose (Example 2, RTS4814)
Type: cell-based
Assay setup: Table 23; Yap1 mRNA as percent of untreated control; 3-10-3 cEt gapmers; single dose
Strand notation (5' to 3'): a small letter for the sugar, then the base; units joined by * are phosphorothioate-linked, units joined directly phosphodiester-linked; [ ] holds rarer units or linkages, { } end groups; capitals alone tell only the bases. k = constrained ethyl (cEt); [5mC] = 5-methylcytosine; d = 2'-deoxy (DNA)
Observation type: YAP1 (% UTC)
Answer format: numeric, % UTC implied, no suffix.

stdin: Can you look up YAP1 (% UTC) on Yap1 mRNA for 1075177 (antisense kG*kA*kA*dA*dT*dT*dA*d[5mC]*d[5mC]*d[5mC]*dG*dG*dG*kA*kA*k[5mC]) [Compound 1075177] ?
stdout: 27

stdin: Can you look up YAP1 (% UTC) on Yap1 mRNA for 1074729 (antisense kA*k[5mC]*kA*d[5mC]*dT*dG*dA*dG*dG*dT*dA*dT*dA*kA*k[5mC]*kT) [Compound 1074729] ?
stdout: 9

stdin: Can you look up YAP1 (% UTC) on Yap1 mRNA for 1075049 (antisense kG*kA*kA*dA*dT*dA*dT*dT*dG*dG*dT*dA*dA*kG*kT*k[5mC]) [Compound 1075049] ?
stdout: 10

stdin: Can you look up YAP1 (% UTC) on Yap1 mRNA for 1076041 (kG*kT*kT*dA*dA*dA*dG*dA*dG*dT*dG*dG*dA*kA*kA*kT; antisense) [Compound 1076041] ?
stdout: 47

====

Provide the recorded YAP1 (% UTC) for the entries that follow.
Tested on: Yap1 mRNA
Experiment: Antisense inhibition of human Yap1 in A-431 cells by cEt gapmers, single dose (Example 2, RTS4814)
Type: cell-based
Assay setup: Table 5; A-431 cells, 5,000 cells per well, free uptake, 2,000 nM modified oligonucleotide, approx. 48 hours; RTS4814; normalized to RIBOGREEN; Yap1 mRNA relative to untreated control cells
Description: Modified oligonucleotides were designed to target a Yap1 nucleic acid and were tested for their effect on Yap1 mRNA level in vitro. The modified oligonucleotides were tested in a series of experiments that had similar culture conditions. […] After a treatment period of approximately 48 hours, RNA was isolated from the cells and Yap1 mRNA levels were measured by quantitative real-time RTPCR. […] Yap1 mRNA levels were normalized to total RNA content, as measured by RIBOGREEN®. […]
Strand notation (5' to 3'): a small letter for the sugar, then the base; units joined by * are phosphorothioate-linked, units joined directly phosphodiester-linked; [ ] holds rarer units or linkages, { } end groups; capitals alone tell only the bases. k = constrained ethyl (cEt); [5mC] = 5-methylcytosine; d = 2'-deoxy (DNA)
Answer format: numeric, % UTC implied, no suffix.

stdin: GET /values?readout=YAP1 (% UTC)&item= 716419 (kT*kT*kT*d[5mC]*d[5mC]*dG*dG*dT*dG*d[5mC]*dA*dT*dG*kT*kG*kT; antisense) [Compound 716419]
stdout: 36

stdin: GET /values?readout=YAP1 (% UTC)&item= 716575 (kA*kA*kA*dG*dA*dA*d[5mC]*dT*dT*dA*dG*dT*dT*k[5mC]*k[5mC]*k[5mC]; antisense) [Compound 716575]
stdout: 84

stdin: GET /values?readout=YAP1 (% UTC)&item= 716563 (kT*kG*kA*dA*dG*d[5mC]*dA*dA*dG*dT*dT*d[5mC]*dT*k[5mC]*kA*kA; antisense) [Compound 716563]
stdout: 126

stdin: GET /values?readout=YAP1 (% UTC)&item= 716566 (kG*kG*kT*dA*dA*d[5mC]*dT*d[5mC]*dT*dT*d[5mC]*dT*dT*kT*k[5mC]*k[5mC]; antisense) [Compound 716566]
stdout: 102

stdin: GET /values?readout=YAP1 (% UTC)&item= 716365 (kT*k[5mC]*kT*dG*dA*dT*dG*d[5mC]*d[5mC]*d[5mC]*dG*dG*d[5mC]*kG*kG*kG; antisense) [Compound 716365]
stdout: 83

stdin: GET /values?readout=YAP1 (% UTC)&item= 716416 (kA*kA*kG*dG*dA*dT*dG*dT*d[5mC]*dA*dG*dA*dA*k[5mC]*kT*k[5mC]; antisense) [Compound 716416]
stdout: 45

stdin: GET /values?readout=YAP1 (% UTC)&item= 716380 (kT*kT*kA*dA*dG*dA*dA*dG*dT*dA*dT*d[5mC]*dT*k[5mC]*kT*kG; antisense) [Compound 716380]
stdout: 54

stdin: GET /values?readout=YAP1 (% UTC)&item= 716371 (kT*kG*kG*dA*dG*dT*d[5mC]*dA*dG*dG*dG*d[5mC]*dT*k[5mC]*k[5mC]*kT; antisense) [Compound 716371]
stdout: 115

stdin: GET /values?readout=YAP1 (% UTC)&item= 716578 (kA*kA*k[5mC]*dT*dT*dT*d[5mC]*dA*d[5mC]*dA*dT*dA*dA*kA*k[5mC]*kT; antisense) [Compound 716578]
stdout: 102
